Ref: patent US8987315B2

- test-target: CYP2C9 (Homo sapiens (Human))
- Sequence (P11712 whole entry): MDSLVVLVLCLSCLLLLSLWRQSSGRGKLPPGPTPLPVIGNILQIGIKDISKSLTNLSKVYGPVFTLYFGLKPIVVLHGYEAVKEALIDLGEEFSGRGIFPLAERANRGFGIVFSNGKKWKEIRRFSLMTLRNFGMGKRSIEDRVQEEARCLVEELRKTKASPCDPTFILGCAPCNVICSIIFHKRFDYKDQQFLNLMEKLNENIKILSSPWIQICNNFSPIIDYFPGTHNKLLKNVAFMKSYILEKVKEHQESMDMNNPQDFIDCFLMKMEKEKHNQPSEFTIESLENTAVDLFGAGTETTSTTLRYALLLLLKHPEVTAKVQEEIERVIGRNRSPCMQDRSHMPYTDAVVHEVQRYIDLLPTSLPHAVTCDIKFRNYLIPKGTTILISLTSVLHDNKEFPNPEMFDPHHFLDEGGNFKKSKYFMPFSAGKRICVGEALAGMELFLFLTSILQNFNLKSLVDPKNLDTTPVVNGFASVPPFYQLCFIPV
measured-property: pIC50
Answers are plain numbers, as −log10 of the molar value.

Ask | Param readout= pIC50; system= CYP2C9 (Homo sapiens (Human)); entry= CC(C)C(c1ccc2cc(OC(F)F)ccc2c1)n1ncnn1 (stereo not shown) ; returns value.
Reply | 4.82
